The next entries give measured pIC50 for CYP 2D6 (Homo sapiens, UniProt P10635).
pIC50: −log10 of the molar value.

# molecule CC(C)(C)C(O)/C=C/c1ccc2c(c1)OCO2 (centres unmarked) ; its pIC50 = < 5.00

# molecule CC1=C(O)C(=O)C=C2C1=CC=C1[C@@]2(C)CC[C@@]2(C)[C@@H]3C[C@](C)(C(=O)O)CC[C@]3(C)CC[C@]12C ; its pIC50 = < 5.00

----------
target: CYP 2C9 (Homo sapiens, UniProt P11712)
Sequence (P11712 whole entry): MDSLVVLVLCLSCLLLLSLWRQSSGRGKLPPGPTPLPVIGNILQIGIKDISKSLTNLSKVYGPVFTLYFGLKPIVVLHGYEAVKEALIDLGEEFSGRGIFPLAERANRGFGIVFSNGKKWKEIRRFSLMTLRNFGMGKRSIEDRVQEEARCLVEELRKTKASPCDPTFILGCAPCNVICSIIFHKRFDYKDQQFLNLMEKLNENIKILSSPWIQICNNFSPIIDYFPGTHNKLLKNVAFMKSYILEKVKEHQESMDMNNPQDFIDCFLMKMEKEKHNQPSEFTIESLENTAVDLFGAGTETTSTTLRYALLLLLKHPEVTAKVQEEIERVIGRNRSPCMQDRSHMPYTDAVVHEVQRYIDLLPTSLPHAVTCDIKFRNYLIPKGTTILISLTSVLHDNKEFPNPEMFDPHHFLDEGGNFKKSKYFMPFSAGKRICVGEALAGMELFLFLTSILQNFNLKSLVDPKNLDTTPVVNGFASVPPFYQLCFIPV
measure: IC50 (µM)
Expressed in µM, but write only the number.

# compound CC1=C(O)C(=O)C=C2C1=CC=C1[C@@]2(C)CC[C@@]2(C)[C@@H]3C[C@](C)(C(=O)O)CC[C@]3(C)CC[C@]12C [Celastrol] ; its IC50 = 4.88

----------
test: In vivo exposure (IV and PO) in rat; conditions: po
measure: bioavailability (%)
Expressed in %, but write only the number.

# molecule CC1=C(O)C(=O)C=C2C1=CC=C1[C@@]2(C)CC[C@@]2(C)[C@@H]3C[C@](C)(C(=O)O)CC[C@]3(C)CC[C@]12C ; its bioavailability = 7.8

----------
assay: Plasma protein binding; type: in vitro ADME; settings: read-out: fraction unbound in plasma (fuplasma)
measure: fraction unbound

# compound CC1=C(O)C(=O)C=C2C1=CC=C1[C@@]2(C)CC[C@@]2(C)[C@@H]3C[C@](C)(C(=O)O)CC[C@]3(C)CC[C@]12C ; its fraction unbound = < 0.022

----------
measure: IC50 (µM)
Expressed in µM, but write only the number.

IC50 on CYP 2B6 (Homo sapiens, UniProt P20813) for CC(C)(C)C(O)/C=C/c1ccc2c(c1)OCO2 (stereo not shown) [Stiripentol] is 8.82

----------
test: PK of celastrol from IV, IP and PO studies in C57BL/6J mice; settings: male, mouse, whole blood
measure: bioavailability

# compound CC1=C(O)C(=O)C=C2C1=CC=C1[C@@]2(C)CC[C@@]2(C)[C@@H]3C[C@](C)(C(=O)O)CC[C@]3(C)CC[C@]12C ; its bioavailability = ~20%

----------
experiment: Brain and plasma concentration of celastrol in mice (IP, oral gavage); settings: mouse, brain, po, 3 mg/kg
measure: concentration at 2 h (nM)
Expressed in nM, but write only the number.

# molecule CC1=C(O)C(=O)C=C2C1=CC=C1[C@@]2(C)CC[C@@]2(C)[C@@H]3C[C@](C)(C(=O)O)CC[C@]3(C)CC[C@]12C ; its concentration at 2 h = 121

----------
experiment: MDCKII bidirectional assay; assay type: in vitro ADME; details: dog; MDCK II bidirectional assay
measure: Papp A→B (×10⁻⁶ cm/s)
Expressed in ×10⁻⁶ cm/s, but write only the number.

# molecule CC1=C(O)C(=O)C=C2C1=CC=C1[C@@]2(C)CC[C@@]2(C)[C@@H]3C[C@](C)(C(=O)O)CC[C@]3(C)CC[C@]12C ; its Papp A→B = 56.5

----------
molecular target: CYP 2C8 (Homo sapiens)
Sequence (P10632 whole entry): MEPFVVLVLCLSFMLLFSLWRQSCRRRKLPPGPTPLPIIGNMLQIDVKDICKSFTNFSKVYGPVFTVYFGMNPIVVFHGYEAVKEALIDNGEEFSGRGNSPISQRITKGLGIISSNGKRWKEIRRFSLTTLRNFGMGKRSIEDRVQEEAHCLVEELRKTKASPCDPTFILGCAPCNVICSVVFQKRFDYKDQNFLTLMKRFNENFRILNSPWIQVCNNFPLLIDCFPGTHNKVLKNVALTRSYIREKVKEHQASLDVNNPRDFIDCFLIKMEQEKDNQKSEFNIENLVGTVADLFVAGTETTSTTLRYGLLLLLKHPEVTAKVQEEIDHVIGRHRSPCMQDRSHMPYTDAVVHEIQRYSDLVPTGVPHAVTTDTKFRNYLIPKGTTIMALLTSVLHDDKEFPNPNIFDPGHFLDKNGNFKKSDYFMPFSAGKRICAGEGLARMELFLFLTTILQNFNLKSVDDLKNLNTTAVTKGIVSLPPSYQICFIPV
measure: pIC50
Units for pIC50: none; it is -log10 of a concentration expressed in mol/L.

# molecule CC1=C(O)C(=O)C=C2C1=CC=C1[C@@]2(C)CC[C@@]2(C)[C@@H]3C[C@](C)(C(=O)O)CC[C@]3(C)CC[C@]12C ; its pIC50 = 5.66

----------
molecular target: CYP 2C19 (Homo sapiens, UniProt P33261)
Sequence (P33261 whole entry): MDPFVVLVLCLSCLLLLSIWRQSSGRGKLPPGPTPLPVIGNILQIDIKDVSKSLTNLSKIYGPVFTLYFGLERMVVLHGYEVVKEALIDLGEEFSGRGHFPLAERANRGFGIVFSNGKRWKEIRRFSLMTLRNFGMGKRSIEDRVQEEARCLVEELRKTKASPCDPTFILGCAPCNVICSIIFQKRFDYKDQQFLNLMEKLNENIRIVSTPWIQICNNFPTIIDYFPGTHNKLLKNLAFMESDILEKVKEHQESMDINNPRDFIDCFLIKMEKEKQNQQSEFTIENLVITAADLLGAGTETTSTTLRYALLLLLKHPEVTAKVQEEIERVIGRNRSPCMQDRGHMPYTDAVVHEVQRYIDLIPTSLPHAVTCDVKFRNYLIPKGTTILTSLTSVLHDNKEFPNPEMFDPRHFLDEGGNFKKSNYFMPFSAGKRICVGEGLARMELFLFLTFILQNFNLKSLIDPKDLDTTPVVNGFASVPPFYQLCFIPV
measure: IC50 (nM)
Expressed in nM, but write only the number.

# compound CC(C)(C)C(O)/C=C/c1ccc2c(c1)OCO2 (centres unmarked) ; its IC50 = 1840

----------
assay: MDCKII bidirectional assay; format: in vitro ADME; details: dog, MDCK; MDCKII cells; read-out: apparent membrane permeability Papp
measure: Papp

# molecule CC1=C(O)C(=O)C=C2C1=CC=C1[C@@]2(C)CC[C@@]2(C)[C@@H]3C[C@](C)(C(=O)O)CC[C@]3(C)CC[C@]12C ; its Papp = ≥ 1 ×10⁻⁶ cm/s

----------
assay: In vivo exposure (IV and PO) in rat
measure: half-life (h)
Expressed in h, but write only the number.

# compound CC1=C(O)C(=O)C=C2C1=CC=C1[C@@]2(C)CC[C@@]2(C)[C@@H]3C[C@](C)(C(=O)O)CC[C@]3(C)CC[C@]12C ; its half-life = 10

Provenance of the data: patent US20200000752A1
